Hey, just so you know, these numbers are from the supplement of paper PMC10724198.

test system: Saccharomyces cerevisiae; assay: protein stability index of tFT-peptide fusion (C-terminal peptide) (PSI (0-1 scale)); higher = more stable (slower turnover); conditions: genetic background: das1 deletion; temperature: 37 C;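 note: PSI is a weighted mean of sequencing reads over stability bins, variants kept only with over 10 reads, mCherry proximal and sfGFP distal, peptide attached via GGGS linker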
Observable: protein stability index
Answers are plain numbers.

Solved cases (3 shown):
1. YRHYGVARKKLA	0.713
2. MPQSLKKMVFLA	0.662
3. NLFVFLSYLFNV	0.717

Parameter requested: protein stability index. Apply to each item below.
1. KIILMCYTLITL
2. GVAILFTFFRLL

0.43
0.612

Okay, here is my list. What is protein stability index for each of these?
1. GVLRMAPGRVMC
2. KMKGLINKRKES

0.702
0.68

Value sought for every listed sequence: protein stability index.
1. PFFVLFSLAFLF
2. FSGRYFLLFRFL
3. VMLFYVGSGVVS
4. CGFVFFVLVVFW
5. CLEHLVYCRLAS

0.489
0.389
0.685
0.229
0.677

For each of the sequences below, state protein stability index.
1. LSVYGFYKMPAG
2. LPSLPPPPPPPP
3. RIIKIRAISINL
4. LYRIETLFMRAQ
5. FSFEGVLVPLLV
6. DKVTLLRRCKQY

0.561
0.732
0.607
0.407
0.411
0.701

Provide each entry's protein stability index from the list below.
1. GFFLLSFLFFVR
2. SGVVWFYIFCLS
3. LQLGFCFVAQFI
4. LQNCRVSVLLGW
5. LVPLSLLLCFFV
6. ALFISLAIWNWS
7. GWRFCVFIYVHR

1: 0.393; 2: 0.57; 3: 0.639; 4: 0.627; 5: 0.551; 6: 0.318; 7: 0.196

# batch: return protein stability index for each of the 3 sequences below
1. WNIVKHREDMLS
2. PPPLPFPTPPPS
3. SRSYNSPSLYVC

0.736
0.702
0.712

Dear reader, for each entry below, please note its protein stability index.
1. VCVAVCFVMCGG
2. RIAIRSAVICAS
3. VCLVAGVFFCLL
4. FLGPMRVLVSSV
5. TGRLFVSLRVWY
6. EGGGGRFWVCVG
7. VWWWGAVGWLMV

1. 0.499
2. 0.487
3. 0.638
4. 0.6
5. 0.467
6. 0.748
7. 0.628

For each listed entry, give its protein stability index.
1. PVFVLFFFSSLV
2. CFCLFVFFISSC

1: 0.558; 2: 0.459
